Provide the recorded growth for the entries that follow.
- System: HL-60(TB) leukemia
- measurement notes: NCI-60 one-dose screen, 48 h (100 = growth as untreated, 0 = no growth, -100 = all killed)
- measurement setup: 10 µM unless noted
This is part of a sample that, as a whole, favours compounds with a hit. Of some 83,000 tested, about 20% had one in any assay. Activity calls are given as the source filed them. How the source made its calls: active means growth percent below 10; inactive means the rest.

Give its growth value. Item: CS(=O)(=O)Nc1ccc(Nc2c3ccccc3nc3cc(Cl)ccc23)cc1
-1.97% (active)

Give its growth value. Item: FC(F)(F)c1cc(-c2nnc3n2N=C(N2CCCC2)CS3)cc(C(F)(F)F)c1
113% (inactive)

Give its growth value. Item: C#CCOc1ccc(C2=NN(CCCC)C3N=C(Cl)c4ncn(CCCC)c4N23)cc1OCC#C (centres undefined)
99.4% (inactive)

Give its growth value. Item: CN(C)CC1CCCCCC(CN(C)C)C1=O (centres undefined)
26% (inactive)

Give its growth value. Item: COc1cc2c(cc1OC(C)=O)C(=O)CCCC2
143% (inactive)

Give its growth value. Item: COc1ccc(C(OCC2OC(n3ccc(NC(=O)c4ccccc4)nc3=O)C(O)C2O)(c2ccccc2)c2ccccc2)cc1 (centres undefined)
22.9% (inactive)

Give its growth value. Item: O=C(c1nc2ccccc2[nH]1)C1C(c2ccc(F)cc2)C2CC3CCCCC3N2[C@@]12C(=O)Nc1ccc(Cl)cc12 (some centres undefined)
33.2% (inactive)

Give its growth value. Item: C=C(C)[C@@H]1CC[C@]2(CO)CC[C@]3(C)[C@H](CC[C@@H]4[C@@]5(C)CCC(NCCc6ccc(O)cc6)C(C)(C)[C@@H]5CC[C@]43C)[C@@H]12 (some centres undefined)
-50.4% (active)

Give its growth value. Item: CCCOc1ccc(/C=N/Nc2cc(C)nc3ccc(Br)cc23)cc1
55.3% (inactive)

Give its growth value. Item: COc1ccc(CCN2CCCN3C2=Nc2ccccc2S3(=O)=O)cc1
3.21% (active)

Give its growth value. Item: COc1ccc(CCNc2nc(SC)nc(-c3cccc([N+](=O)[O-])c3)c2C#N)cc1OC
120% (inactive)

Give its growth value. Item: O=C(c1ccccc1)N1N=C(c2ccc(-n3ccc(C(F)(F)F)n3)c(F)c2)CC1c1ccc[nH]1 (centres undefined)
101% (inactive)

Give its growth value. Item: CC1=CC(=O)N(c2cccc3c(N4C(=O)C=C(C)C4=O)cccc23)C1=O
-1.53% (active)

Give its growth value. Item: CC(=O)Nc1ccccc1-c1n[nH]c(=O)[nH]c1=O
109% (inactive)

Give its growth value. Item: COc1ccc2nc3c(cc2c1)C(=O)CC(C(F)(F)F)C3 (centres undefined)
-15.1% (active)

Give its growth value. Item: N=C(N)c1ccc(-c2ccc(-c3ccc(Cl)cc3Cl)s2)nc1
-35.7% (active)

Give its growth value. Item: COC(=O)[C@]12CC[C@@H](C)[C@H](C)[C@@H]1C1=CC[C@@H]3[C@@]4(C)C[C@@H](OC(=O)/C=C/c5ccccc5)[C@H](O)[C@@](C)(CO)[C@@H]4[C@H](O)C[C@@]3(C)[C@]1(C)CC2
-20.6% (active)

Give its growth value. Item: COc1cc(-c2nn(-c3ccc(Br)cc3)cc2C(=O)O)ccc1O
82.8% (inactive)

Give its growth value. Item: Oc1ccc2c3c1O[C@H]1c4[nH]c5ccccc5c4C[C@@]4(O)C(C2)N(CC2CC2)CC[C@]314
98.6% (inactive)

----------
- Test system: HL-60(TB) leukemia
- measurement notes: NCI-60 one-dose screen, 48 h (100 = growth as untreated, 0 = no growth, -100 = all killed)
- measurement setup: 10 µM unless noted
- Protocol: Growth inhibition of the HL-60(TB) human tumor cell line is measured as a screen for anti-cancer activity. Cells are grown in 96 well plates and exposed to the test compound for 48 hours. Compounds are tested at a single concentration, which is 10^-5 M for most compounds. The reported endpoint is percent growth (GI% or GIPRCNT), where numbers from 0 - 100% represent growth inhibition, and numbers from -100% - 0 represent cell death. For example, a value of 40 represents 60% growth inhibition. […]
Compounds without any hit were thinned out: in the full panel of roughly 83,000, 20% have a hit.
Provide the recorded growth for the entries that follow.
Reply numerically in %, unit not repeated.

Give its growth value. Item: COc1cc([C@@H](CCO)C[C@H](C)c2ccc3ccccc3c2)cc(OC)c1OC
6.14

Give its growth value. Item: CCOc1cc2c(cc1OCC)C(c1cc(OC)c(O)cc1Cl)NCC2 (stereo not given)
91.7

Give its growth value. Item: CCN(CC)CCCC(C)Nc1ccnc(/C=C/c2ccc(Cl)cc2)c1 (stereo not given)
65.9

Give its growth value. Item: COc1ccc(C2CC(c3cc(OC)c(OC)c(OC)c3)=NN2c2ccc(S(N)(=O)=O)cc2)cc1 (stereo not given)
2.23

Give its growth value. Item: O=C1/C(=C/c2ccc([N+](=O)[O-])o2)Oc2ccc(Br)cc21
43.2

----------
- Tested on: HL-60(TB) leukemia
- measurement notes: NCI-60 one-dose screen, 48 h
- measurement setup: 10 µM unless noted
About 83,000 compounds went through this panel and 20% of them were active in at least one assay; those are over-represented in the sample as a whole. Calls of active or inactive are those of the source. How the source made its calls: active means growth percent below 10; inactive means the rest.
Respond only with the outcome that fits, drawn from active, inactive

For CCCC(C(=O)OCC)C(C)OC(=O)OCC (configuration not stated) , what call appears in the results of this test?
inactive

For Cc1nc2sc(C(=O)Nc3cccc4ccccc34)c(N)c2cc1C(=O)/C=C/c1ccccc1 , what call appears in the results of this test?
active

For OC[C@@H](O)C(O[C@@H]1O[C@H](CO)[C@H](O)[C@H](O)[C@H]1O)[C@H](O)[C@@H](O)CO (some centres not stated) , what call appears in the results of this test?
inactive

For Cc1c(Cl)cccc1NC(=O)CCCl , what call appears in the results of this test?
inactive

For CN(C)/C=C1\SC(=Nc2ccc(Cl)cc2)NC1=O , what call appears in the results of this test?
inactive

For COc1cc2ncn3c(=O)c4c5c(sc4nc3c2cc1OC)CCCCC5 , what call appears in the results of this test?
inactive

For COc1cc(C2=Nc3c(N)nc(N)nc3NC(c3cccc(Nc4ccnc5cc(C(F)(F)F)ccc45)c3)C2)cc(OC)c1OC (configuration not stated) , what call appears in the results of this test?
inactive

For CN1CCN(c2ccc(-c3ccc4ncc(C#N)c(Nc5ccc(F)c(Cl)c5)c4c3)cn2)CC1 , what call appears in the results of this test?
inactive

For O=C1c2c(c3c4ccccc4n(CCCCCCBr)c3c3[nH]c4ccccc4c23)C(=O)N1O , what call appears in the results of this test?
active

For C=CCn1c(C)nc2cc(Nc3nc(Cl)nc4ccccc34)ccc21 , what call appears in the results of this test?
inactive

For O=C1Nc2ccccc2C12Nc1cc(Cl)ccc1S2 (configuration not stated) , what call appears in the results of this test?
inactive

For Cc1ccccc1Nc1n[nH]c(Cc2ccccc2)n1 , what call appears in the results of this test?
inactive

For CCCCC1CCc2cccc3c(SCC(=O)N(C)c4ccc(Cl)cc4)cc[n+]1c23 (configuration not stated) , what call appears in the results of this test?
inactive

For CCCCn1cnc2c(SCc3ccc([N+](=O)[O-])cc3)nc(N)nc21 , what call appears in the results of this test?
active

For CCCCC[C@H]1CC=C2C(=O)C(Cl)=C[C@@H]2CC=CCCCC(=O)O[C@@H](CCCCC)CC=C2C(=O)C(Cl)=C[C@@H]2CC=CCCCC(=O)O[C@@H](CCCCC)CC=C2C(=O)C(Cl)=C[C@@H]2CC=CCCCC(=O)O1 , what call appears in the results of this test?
active

For CN(C)c1ccc2cc(-c3cc4c(oc3=O)-c3ccccc3OC4O)c(=O)oc2c1 (configuration not stated) , what call appears in the results of this test?
active

For Cc1ccc(NC(=O)Cn2nncc2CN2C(=O)CSC2=O)cc1C , what call appears in the results of this test?
inactive

For O=C(N(c1ccccc1)c1ccccc1)n1cc(I)c2nc(Cl)nc(Cl)c21 , what call appears in the results of this test?
inactive

For COc1cc2cc3c(nc2cc1OC)CCN3Cc1ccc(NC(=O)Nc2cc(C(F)(F)F)cc(C(F)(F)F)c2)cc1 , what call appears in the results of this test?
inactive

For CO[C@H](C(=O)[C@@H](O)[C@@H](C)O)[C@@H]1Cc2cc3cc(O[C@H]4C[C@@H](O[C@H]5C[C@@H](O)[C@H](O)C(C)O5)[C@H](O)C(C)(O)O4)cc(O)c3c(O)c2C(=O)[C@H]1O[C@H]1C[C@@H](O[C@H]2C[C@@H](O[C@H]3C[C@@H](OC)[C@H](O)C(C)O3)[C@@H](O)C(C)O2)[C@H](O)C(C)O1 (some centres not stated) , what call appears in the results of this test?
inactive

For Nc1ccc(CC(=O)O)c(N)c1 , what call appears in the results of this test?
inactive

For Cn1cc(-c2nonc2-c2c[nH]c3ccccc23)c2ccccc21 , what call appears in the results of this test?
active

For COc1cc(NCC(O)CN(CC(C)C)CC(C)C)c2ncccc2c1 (configuration not stated) , what call appears in the results of this test?
inactive

For COC(=O)[C@]12CC[C@@H](C)[C@H](C)[C@@H]1C1=CC[C@@H]3[C@@]4(C)C=C(O)C(=O)[C@@]5(C)COC(=C54)C[C@@]3(C)[C@]1(C)CC2 , what call appears in the results of this test?
active

For O=c1[nH]c(=O)[nH]c(=S)[nH]1 , what call appears in the results of this test?
inactive

For COc1cc2c3c(c4c5ccccc5[nH]c4c2c(OC)c1OC)C(=O)N(CCN1CCCCC1)C3=O , what call appears in the results of this test?
inactive

For Cc1nc(Nc2cccnc2)sc1C(=O)/C=C/c1ccc(F)cc1 , what call appears in the results of this test?
inactive

For COc1cc(C#N)cc(OC)c1OCCN(CCOc1c(OC)cc(C#N)cc1OC)S(=O)(=O)c1ccc(C)cc1 , what call appears in the results of this test?
inactive

For CC(=O)OC1Oc2cc(C)c(C)cc2-c2oc(=O)c(-c3cc4ccccc4oc3=O)cc21 (configuration not stated) , what call appears in the results of this test?
inactive

For CCN(CC)CCCC(Nc1c2ccc(Cl)cc2nc2ccc(OC)cc12)c1ccc(F)cc1 (configuration not stated) , what call appears in the results of this test?
active

For COc1cccc(-c2nc3sccn3c2-c2ccnc(NCCCNS(=O)(=O)c3cccc(Cl)c3)c2)c1 , what call appears in the results of this test?
active

For ClC(Cl)c1nc(-c2ccccc2)nc2cc(-c3ccccc3)nn12 , what call appears in the results of this test?
inactive

For [N-]=[N+]=NC(C(=O)O)c1ccccc1 (configuration not stated) , what call appears in the results of this test?
inactive

For COc1ccc2[nH]c(O)c(/C=c3/ccc4c(c3)N=C(c3ccc(C(F)(F)F)cc3)N=4)c2c1 , what call appears in the results of this test?
inactive

For O=S(=O)(NCCCNc1nccc(-c2c(-c3ccc(F)cc3)nc3sccn23)n1)c1ccc(F)cc1 , what call appears in the results of this test?
inactive

For COc1ccc(C2OCC(C)(C)CO2)cc1OC , what call appears in the results of this test?
inactive

For O=C1COCCN1c1ccc(NCc2cn(C(=O)c3ccc(Cl)cc3)c3ccccc23)cc1 , what call appears in the results of this test?
inactive
